TEST_TARGET: T1, bacterially produced human IL-6 (human, UniProt P05231 30-212)
T1 construct: also called bactIL-6; prokaryotic IL-6
TEST_PROTOCOL: SPR; purified Fab; IL-6 coated on CM5 chip;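 also: dissociation rate taken from the wash phase, association rate fitted over the injection phase with analyte concentration and dissociation rate as inputs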
OBSERVABLE: Kd (nM)
One number for each entry, in nM.

# query: Kd of entry Fab 18C7 (Fab, V domains shown, Fab; also called 18C7 (090-423)) VH: EVQLVESGPGLVKPSQTLSLTCTVSGGSITASFDAWSWIRQPPGKGLEWMGVIAYDGSTYYSPSLKSRTSISRDTSKNQFSLQLSSVTPEDTAVYYCARKSSWLIGYGMDYWGKGTLVTVSS VL: QAGLTQPSALSVTLGQTAKITCQGGSLGSSYAHWYQQKPGQAPVLVIYDDDSRPSGIPERFSGSSSGGRATLTISGAQAEDEGDYYCQSADSSGNAAVFGGGTHLTVLG
9.1
